- TARGET OR TEST SYSTEM: RORγ (Homo sapiens)
- Construct: The concentration of B-RORγ LBD was 40 nM
- Sequence (P51449 269-508 limits assumed): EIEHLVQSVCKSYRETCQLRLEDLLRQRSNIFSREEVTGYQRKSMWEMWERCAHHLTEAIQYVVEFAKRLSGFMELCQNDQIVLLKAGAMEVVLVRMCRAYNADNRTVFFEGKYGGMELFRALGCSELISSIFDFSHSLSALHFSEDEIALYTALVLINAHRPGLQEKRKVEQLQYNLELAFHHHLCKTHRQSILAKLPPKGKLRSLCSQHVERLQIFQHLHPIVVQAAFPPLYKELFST
- ASSAY REMARKS: Fluorescence resonance energy transfer (FRET) test, B-RORγ LBD / Biotin-SRC1
- Type: biochemical
- Method: Biological Example 1 Fluorescence Resonance Energy Transfer (FRET) Test (1) Preparation of RORγ Test Buffer and 10 mM of DTT 100 mL of 1× Basic test buffer (HEPES (pH 7.4), 100 mM NaCl, 0.01% BSA) was prepared, and 154.25 mg of DTT was added. The mixture was well mixed. (2) Preparation of Compound with Gradient Concentration […] After incubation at room temperature for 1 hour, the fluorescence values at 665 nm and 615 nm were measured with an EnVision plate reader, and the inhibition rate was calculated. […]
# note: exactly 8 nM is not below, so it is not fulfilled; use fulfilled for IC50 strictly under it

- GIVEN SMILES: "CCC(F)(F)OC[C@@H]1C[C@H](Oc2ccc(C(F)(F)F)cc2)CN1c1ccc(C(=O)N[C@@H](CO)c2ccc(S(=O)(=O)CC)cn2)cn1"
  ASSIGNED CATEGORY: "not fulfilled"
- GIVEN SMILES: "CCS(=O)(=O)c1ccc([C@H](CO)NC(=O)c2ccc(N3C[C@@H](Oc4ccc(C(F)(F)F)cc4)C[C@H]3COC(F)(F)F)cc2)cc1"
  ASSIGNED CATEGORY: "fulfilled"
- GIVEN SMILES: "CCS(=O)(=O)c1ccc([C@H](CO)NC(=O)c2ccc(N3C[C@H](Oc4ccc(C(F)(F)F)cc4)C[C@H]3COC(F)F)nc2)cc1"
  ASSIGNED CATEGORY: "not fulfilled"
- GIVEN SMILES: "[2H]C([2H])([2H])OC[C@@H]1C[C@H](Oc2ccc(C(F)(F)F)cc2)CN1c1ccc(C(=O)NCc2ccc(S(=O)(=O)CC)cc2)cc1"
  ASSIGNED CATEGORY: "fulfilled"
- GIVEN SMILES: "CCC(F)(F)OC[C@@H]1C[C@H](Oc2ccc(C(F)(F)F)cc2)CN1c1ccc(C(=O)N[C@@H](CO)c2ccc(S(=O)(=O)CC)cc2)cc1"
  ASSIGNED CATEGORY: "not fulfilled"
- GIVEN SMILES: "CCS(=O)(=O)c1ccc(CNC(=O)c2ccc(N3C[C@H](Oc4ccc(C(F)(F)F)cc4)C[C@H]3COC)cc2)cc1"
  ASSIGNED CATEGORY: "not fulfilled"
- GIVEN SMILES: "CCS(=O)(=O)c1ccc([C@H](CCO)NC(=O)c2ccc(N3C[C@@H](Oc4ccc(OC(F)(F)F)cc4)C[C@H]3CF)cc2)cc1"
  ASSIGNED CATEGORY: "not fulfilled"
- GIVEN SMILES: "CCS(=O)(=O)c1ccc([C@H](CO)NC(=O)c2ccc(N3C[C@@H](Oc4ccc(C(F)(F)F)nc4)C[C@H]3COC(F)F)cc2)cc1"
  ASSIGNED CATEGORY: "fulfilled"
- GIVEN SMILES: "CCS(=O)(=O)c1ccc(CNC(=O)c2cnc(N3C[C@H](Oc4ccc(C(F)(F)F)cc4)C[C@H]3COCCF)nc2)cc1"
  ASSIGNED CATEGORY: "not fulfilled"
- GIVEN SMILES: "CCS(=O)(=O)c1ccc([C@H](CO)NC(=O)c2cnc(N3C[C@H](Oc4ccc(C(F)(F)F)cc4)C[C@H]3COC(F)(F)F)nc2)cc1"
  ASSIGNED CATEGORY: "not fulfilled"
- GIVEN SMILES: "CCS(=O)(=O)c1ccc([C@H](CO)NC(=O)c2ccc(N3C[C@@H](Oc4ccc(C(F)(F)F)cc4)C[C@H]3COC(F)F)cc2F)cc1"
  ASSIGNED CATEGORY: "fulfilled"

###

- ASSAY REMARKS: Pharmacokinetic evaluation I in ICR mice
- Format: in vivo
- ASSAY CONDITIONS: mouse, po, 5 mg/kg, plasma
Catalogue of AUC(0-t) values

- GIVEN SMILES: "CCS(=O)(=O)c1ccc([C@H](CO)NC(=O)c2ccc(N3C[C@@H](Oc4ccc(C(F)(F)F)cc4)C[C@H]3COC(F)F)cc2)cc1"
  AUC(0-t), µM·h: 11.4
- GIVEN SMILES: "CCS(=O)(=O)c1ccc([C@H](CCO)NC(=O)c2ccc(N3C[C@@H](Oc4ccc(OC(F)(F)F)cc4)C[C@H]3COC(F)F)cc2)cc1"
  AUC(0-t), µM·h: 28.5
- GIVEN SMILES: "CCS(=O)(=O)c1ccc([C@H](CO)NC(=O)c2ccc(N3C[C@@H](Oc4ccc(C(F)(F)F)cc4)C[C@H]3COC(F)(F)F)cc2)cc1"
  AUC(0-t), µM·h: 20.9
- GIVEN SMILES: "CCS(=O)(=O)c1ccc([C@H](CCO)NC(=O)c2ccc(N3C[C@@H](Oc4ccc(C(F)(F)F)cc4)C[C@H]3COC(F)F)cc2)cc1"
  AUC(0-t), µM·h: 21

###

- ASSAY REMARKS: Stability in human liver microsomes
- Format: in vitro ADME
- ASSAY CONDITIONS: pH 7.4; human liver microsomes; inferred in vivo intrinsic hepatic clearance rate
Catalogue of CLint scaled at 1.5 μM values
VALUE KIND: CLint scaled at 1.5 μM (mL/min/kg)

- COMPOUND: "CCS(=O)(=O)c1ccc([C@H](CO)NC(=O)c2ccc(N3C[C@@H](Oc4ccc(C(F)(F)F)cc4)C[C@H]3COC(F)(F)F)cc2)cc1 [Example 48]"
  READOUT NUMBER: 2.9
- COMPOUND: "CCS(=O)(=O)c1ccc([C@H](CCO)NC(=O)c2ccc(N3C[C@@H](Oc4ccc(OC(F)(F)F)cc4)C[C@H]3COC(F)F)cc2)cc1 [Example 119]"
  READOUT NUMBER: 4.4
- COMPOUND: "CCS(=O)(=O)c1ccc([C@H](CCO)NC(=O)c2ccc(N3C[C@@H](Oc4ccc(C(F)(F)F)cc4)C[C@H]3COC(F)F)cc2)cc1 [Example 91]"
  READOUT NUMBER: 4.2
- COMPOUND: "CCS(=O)(=O)c1ccc([C@H](CO)NC(=O)c2ccc(N3C[C@@H](Oc4ccc(C(F)(F)F)cc4)C[C@H]3COC(F)F)cc2)cc1 [Example 39]"
  READOUT NUMBER: 8.2

###

- TARGET OR TEST SYSTEM: RORγ (Homo sapiens)
- Construct: The concentration of B-RORγ LBD was 40 nM
- ASSAY REMARKS: Fluorescence resonance energy transfer (FRET) test, B-RORγ LBD / Biotin-SRC1
- Type: biochemical
pIC50: −log10 of the molar value.
Tick TRUE if pIC50 is 8 or greater. Tick FALSE if pIC50 is less than 8.

- GIVEN SMILES: "CCS(=O)(=O)c1ccc([C@H](CO)NC(=O)c2ccc(N3C[C@H](Oc4ccc(C(F)(F)F)cc4)C[C@H]3COCCC(F)F)cc2)cc1"
  TARGET OR TEST SYSTEM: "RORγ (Homo sapiens)"
  ASSIGNED CATEGORY: "FALSE"
- GIVEN SMILES: "CCS(=O)(=O)c1ccc([C@H](CO)NC(=O)c2ccc(N3C[C@H](Oc4ccc(C(F)(F)F)cc4)C[C@H]3COC(F)F)cc2)cc1"
  TARGET OR TEST SYSTEM: "RORγ (Homo sapiens)"
  ASSIGNED CATEGORY: "FALSE"
- GIVEN SMILES: "CCS(=O)(=O)c1ccc([C@H](CO)NC(=O)c2ccc(N3C[C@@H](Oc4ccc(C(F)(F)F)cc4)C[C@H]3CCOC(F)F)cc2)cc1"
  TARGET OR TEST SYSTEM: "RORγ (Homo sapiens)"
  ASSIGNED CATEGORY: "TRUE"
- GIVEN SMILES: "CCS(=O)(=O)c1ccc(CNC(=O)c2cnc(N3C[C@@H](Oc4ccc(OC(F)(F)F)cn4)C[C@H]3COC(F)F)c(F)c2)cc1"
  TARGET OR TEST SYSTEM: "RORγ (Homo sapiens)"
  ASSIGNED CATEGORY: "TRUE"
- GIVEN SMILES: "CCS(=O)(=O)c1ccc([C@H](CO)NC(=O)c2cnc(N3C[C@H](Oc4ccc(C(F)(F)F)cc4)C[C@H]3CCOC(F)F)nc2)cc1"
  TARGET OR TEST SYSTEM: "RORγ (Homo sapiens)"
  ASSIGNED CATEGORY: "FALSE"
- GIVEN SMILES: "CCS(=O)(=O)c1ccc([C@H](CO)NC(=O)c2ccc(N3C[C@H](Oc4ccc(C(F)(F)F)cc4)C[C@H]3COC3CCOCC3)cc2)cc1"
  TARGET OR TEST SYSTEM: "RORγ (Homo sapiens)"
  ASSIGNED CATEGORY: "FALSE"
